Values from patent US20190059368A1

Tested on: Colletotrichum acutatum
Experiment: Direct bioautography, antifungal
Type: cell-based
Settings: Colletotrichum acutatum; 2 mM; 4 μl spotted (2 μl of the positive controls); average of 2 assays; read-out: zones of inhibition
Measured zone of inhibition at 2000 µM of individual entries
reported-property: zone of inhibition at 2000 µM (mm)

molecule | measured
CCCCNC(=O)n1c(NC(=O)OC)nc2ccccc21 [Benomyl, benomyl] | 17
O=C1C2CC=CCC2C(=O)N1SC(Cl)(Cl)Cl (stereo not drawn) [Captan, captan] | 11.5
Cc1cc(C2CC2)nc(Nc2ccccc2)n1 [Cyprodinil, cyprodinil] | 18
COc1cc(/C=C/c2ccccc2)cc(OC)c1C [Compound 6a] | 5
COc1cc(/C=C\c2ccc(F)cc2)cc(OC)c1C [Compound 7e] | 6
COc1cc(/C=C\c2ccccc2)cc(OC)c1C [Compound 7a] | 8
